Measured MIC values are reported for all entries that follow.
System: Klebsiella pneumoniae
protocolText: Antimicrobial activity against colistin resistant Klebsiella pneumoniae ATCC 13883 assessed as bacterial growth inhibition incubated for 20 hrs by broth microdilution method
Type: functional
Positions of bridges follow the written chain, without caps; N, C: chain ends. Non-standard residues stand in square brackets, D forms with d. Residues, ends and D or L forms follow the SMILES beside them. *: point of attachment. Benzoyl(4-Ph) = O=C(c1ccc(-c2ccccc2)cc1)*; dPhe(4-Cl) = N[C@H](Cc1ccc(Cl)cc1)C(=O)O; Gly(octyl) = CCCCCCCC[C@H](N)C(=O)O; Octanoyl = CCCCCCCC(=O)*; Dab = NCC[C@H](N)C(=O)O
Write it as a number; the unit µg/mL goes unstated.

Example entries begin here.
| compound | resultValue |
| --- | --- |
| CCCCCCCC[C@@H]1NC(=O)[C@@H](Cc2ccccc2)NC(=O)[C@H](CCN)NC(=O)[C@@H](NC(=O)[C@H](CCN)NC(=O)[C@@H](NC(=O)[C@H](CCN)NC(=O)CCCCCCC)[C@@H](C)O)CCNC(=O)[C@H]([C@@H](C)O)NC(=O)[C@H](CCN)NC(=O)[C@H](CCN)NC1=O (Octanoyl-[Dab]T[Dab][Dab][Dab][dF][Gly(octyl)][Dab][Dab]T; lactam 4-C) | 16 |
| CCCCCCCC(=O)N[C@@H](CCN)C(=O)N[C@H](C(=O)N[C@@H](CCN)C(=O)N[C@H]1CCNC(=O)[C@H]([C@@H](C)O)NC(=O)[C@H](CCN)NC(=O)[C@H](CCN)NC(=O)[C@H](CC(C)C)NC(=O)[C@@H](Cc2ccc(Cl)cc2)NC(=O)[C@H](CCN)NC1=O)[C@@H](C)O (Octanoyl-[Dab]T[Dab][Dab][Dab][dPhe(4-Cl)]L[Dab][Dab]T; lactam 4-C) | 16 |
| CCCCCCCC(=O)N[C@@H](CCN)C(=O)N[C@H](C(=O)N[C@@H](CCN)C(=O)N[C@H]1CCNC(=O)[C@H]([C@@H](C)O)NC(=O)[C@H](CCN)NC(=O)[C@H](CCN)NC(=O)[C@H](CC(C)C)NC(=O)[C@@H](Cc2ccc(Br)cc2)NC(=O)[C@H](CCN)NC1=O)[C@@H](C)O | 16 |
| CC[C@H](C)[C@@H]1NC(=O)[C@@H](CC(C)C)NC(=O)[C@H](CCN)NC(=O)[C@@H](NC(=O)[C@@H](CO)NC(=O)[C@@H](NC(=O)[C@H](CCN)NC(=O)c2ccc(-c3ccccc3)cc2)[C@@H](C)O)CCNC(=O)[C@H](CC(C)C)NC(=O)[C@H](CCN)NC(=O)[C@H](CCN)NC1=O ({Benzoyl(4-Ph)}-[Dab]T[dS][Dab][Dab][dL]I[Dab][Dab]L; lactam 4-C) | 2 |

As a next step, examine the compound that follows.
# input compound: "CCCCCCCC(=O)N[C@@H](CCN)C(=O)N[C@H](C(=O)N[C@@H](CCN)C(=O)N[C@H]1CCNC(=O)[C@H]([C@@H](C)O)NC(=O)[C@H](CCN)NC(=O)[C@H](CCN)NC(=O)[C@H](CCCCCC)NC(=O)[C@@H](Cc2ccccc2)NC(=O)[C@H](CCN)NC1=O)[C@@H](C)O" ; wanted: its MIC
8
